- MEASURED ON: HIF2α PAS-B domain (236-350, biotinylated on the N-terminus) (Homo sapiens (Human), UniProt Q99814)
- Sequence (Q99814 236-350): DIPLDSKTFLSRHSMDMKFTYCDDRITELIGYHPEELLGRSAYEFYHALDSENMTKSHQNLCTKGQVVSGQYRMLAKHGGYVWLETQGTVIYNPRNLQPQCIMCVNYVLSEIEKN
RECORDED METRIC: IC50 (nM)
Just the number please, in nM, no unit attached.

> print(dat)
                                   compound  display.unit  measured.value
1  CSc1ccc2c(c1F)OCC[C@@]21CN2C=C(C(F)(F)F)C=C(OC(F)F)C2=N1 [Example 99]            nM              10
2  N#Cc1ccc2c(c1F)C(F)(F)CC[C@@]21CN2C=C(C(F)(F)F)C=C(OC(F)F)C2=N1 [Example 15]            nM              16
3  Fc1c(OC(F)(F)F)ccc2c1OCC[C@@]21CN2C=C(C(F)(F)F)C=C(OC(F)F)C2=N1 [Example 105]            nM              21
4  FC(F)OC1=CC(C(F)(F)F)=CN2C[C@@]3(N=C12)c1ccc(I)cc1OC[C@@H]3F [Example 60]            nM               6
5  N#CC1=CN2C[C@@]3(CCOc4c3ccc(I)c4F)N=C2C(OC(F)F)=C1 [Example 51]            nM               9

Ask | Consider the compound Fc1ccc2c(c1F)CC[C@@]21CN2C=C(C(F)(F)F)C=C(OC(F)F)C2=N1 [Example 2] and give its measured IC50.
Reply | 12

Ask | Ok, now [2H]C1([2H])CC[C@@]2(CN3C=C(C#N)C=C(OC(F)F)C3=N2)c2cccc(F)c21 [Example 27]
Reply | 12

Ask | Ok, now FC(F)OC1=CC(C(F)(F)F)=CN2C[C@@]3(CCc4cc(C(F)(F)F)ncc43)N=C12 [Example 3]
Reply | 12

Ask | Ok, now FC(F)OC1=CC(C(F)(F)F)=CN2C[C@@]3(CCC(F)(F)c4c3ccnc4Cl)N=C12 [Example 31]
Reply | 9

Ask | Ok, now Fc1ccc2c(c1F)OC[C@H](F)[C@@]21CN2C=C(C(F)(F)F)C=C(OC(F)F)C2=N1 [Example 98]
Reply | 17

Ask | Ok, now Fc1c(Br)ccc2c1C(F)(F)CC[C@@]21CN2C=C(C(F)(F)F)C=C(OC(F)F)C2=N1 [Example 14]
Reply | 9

Ask | Ok, now Fc1c(Br)ccc2c1OC[C@H](F)[C@@]21CN2C=C(C(F)(F)F)C=C(OC(F)F)C2=N1 [Example 57]
Reply | 12

Ask | Ok, now [2H]C([2H])([2H])c1nccc2c1C(F)(F)CC[C@@]21CN2C=C(C(F)(F)F)C=C(OC(F)F)C2=N1 [Example 33]
Reply | 17

Ask | Ok, now FCOC1=CC(C(F)(F)F)=CN2C[C@@]3(CCSc4c3cnc(C(F)(F)F)c4F)N=C12 [Example 114]
Reply | 42

---

- Tested on: HIF2α-dependent transcription in 786-O-HRE-Luc cells
- PROTOCOL SUMMARY: In vitro cellular hypoxia response element (HRE) reporter gene assay (RGA) for HIF2α
- Type: cell-based, human
- PROTOCOL CONDITIONS: Homo sapiens, 24 hours incubation
- Method: Stock solutions of compounds were prepared at a concentration of 10 mM in DMSO and stored at 4° C. […] The ability of compounds to inhibit HIF2α- and HIF1α-dependent transcription was assessed in 786-O-HRE-Luc and RCC4-HRE-Luc cells, respectively. The putative unselective inhibition of firefly luciferase activity or expression was assessed in 786-O-UB6-Luc and RCC4-UB6-Luc cells, respectively. […]
RECORDED METRIC: pIC50
Remember the convention: pIC50 equals -log10 of concentration in molar.

> print(dat)
                                   compound  measured.value
1  FC(F)OC1=CC(C(F)(F)F)=CN2C[C@@]3(CCOc4c(Cl)cccc43)N=C12            6.01
2  Fc1c(Cl)ccc2c1COCC[C@@]21CN2C=C(C(F)(F)F)C=C(OC(F)F)C2=N1            6.53
3  N#CC1=CN2C[C@@]3(CCSc4c3ccc(Cl)c4F)N=C2C(OC(F)F)=C1            6.63
4  N#CC1=CN2C[C@@]3(CCOc4c3ccc(I)c4F)N=C2C(OC(F)F)=C1            6.29
5  N#Cc1ccc2c(c1F)SCC[C@@]21CN2C=C(C(F)(F)F)C=C(OC(F)F)C2=N1            7.00
6  COC1=CC(C(F)(F)F)=CN2C[C@@]3(CCC(F)(F)c4c3ccnc4Cl)N=C12            5.87
7  O[C@@H]1c2c(ccc(Br)c2F)[C@]2(CN3C=C(C(F)(F)F)C=C(OC(F)F)C3=N2)CC1(F)F            6.35

Ask | Consider the compound FC(F)OC1=CC(C(F)(F)F)=CN2CC3(CCCOc4c(Cl)cccc43)N=C12 (racemic) and give its measured pIC50.
Reply | 5.99

---

Measured IC50 of individual entries
- Test system: HIF2α-dependent transcription in 786-O-HRE-Luc cells
- PROTOCOL SUMMARY: In vitro cellular hypoxia response element (HRE) reporter gene assay (RGA) for HIF2α
- Assay type: cell-based, human
- PROTOCOL CONDITIONS: Homo sapiens, 24 hours incubation
- Experimental: Stock solutions of compounds were prepared at a concentration of 10 mM in DMSO and stored at 4° C. […] The ability of compounds to inhibit HIF2α- and HIF1α-dependent transcription was assessed in 786-O-HRE-Luc and RCC4-HRE-Luc cells, respectively. The putative unselective inhibition of firefly luciferase activity or expression was assessed in 786-O-UB6-Luc and RCC4-UB6-Luc cells, respectively. […]
Just the number please, in nM, no unit attached.

Sample answers from the record:
> print(dat)
                               smiles.input                               measured.on  measured.value
1  N#CC1=CN2C[C@@]3(CCCc4cc(F)ccc43)N=C2C(OC(F)F)=C1  HIF2α-dependent transcription in 786-O-HRE-Luc cells             267
2  Fc1c(Cl)ccc2c1OC[C@H](F)[C@@]21CN2C=C(C(F)(F)F)C=C(OC(F)F)C2=N1  HIF2α-dependent transcription in 786-O-HRE-Luc cells             193

Ask | Kindly state the measured IC50 obtained for COc1ccc2c(c1F)OCC[C@@]21CN2C=C(C(F)(F)F)C=C(OC(F)F)C2=N1 with HIF2α-dependent transcription in 786-O-HRE-Luc cells.
Reply | 417

Ask | Ok, now FC(F)OC1=CC(C(F)(F)F)=CN2C[C@@]3(CCOc4c(C(F)F)cccc43)N=C12
Reply | 7650

---

- MEASURED ON: HIF2α PAS-B domain (236-350, biotinylated on the N-terminus) (Homo sapiens (Human), UniProt Q99814)
- PROTOCOL SUMMARY: In vitro SPA with the PAS-B domain of HIF2α (competition binding with radio-ligand)
- PROTOCOL CONDITIONS: read-out: affinity of the non-labeled ligand, IC50
RECORDED METRIC: IC50 (nM)
Just the number please, in nM, no unit attached.

Ask | Consider the molecule O=[N+]([O-])c1c(Nc2cc(F)cc(Cl)c2)ccc2nonc12 [reference compound] and give its measured IC50.
Reply | 82

---

- MEASURED ON: HIF2α PAS-B domain (236-350, biotinylated on the N-terminus) (Homo sapiens (Human), UniProt Q99814)
- PROTOCOL SUMMARY: biochemical
RECORDED METRIC: IC50 (nM)
Just the number please, in nM, no unit attached.

Sample answers from the record:
> print(dat)
                                   compound  measured.value
1  FC(F)OC1=CC(C(F)(F)F)=CN2CC3(CCCOc4c(Cl)cccc43)N=C12 (racemic)              16
2  O=C1c2c(F)cccc2[C@@]2(C[C@H]1F)CN1C=C(C(F)(F)F)C=C(OC(F)F)C1=N2              15
3  Fc1c(C(F)(F)F)ccc2c1COCC21CN2C=C(C(F)(F)F)C=C(OC(F)F)C2=N1 (racemic)              29

Ask | Consider the compound FC(F)OC1=CC(C(F)(F)F)=CN2CC3(CCCc4cnccc43)N=C12 (racemic) and give its measured IC50.
Reply | 12

Ask | Ok, now O[C@@H]1c2c(ccc(Br)c2F)[C@]2(CN3C=C(C(F)(F)F)C=C(OC(F)F)C3=N2)CC1(F)F
Reply | 36

Ask | Ok, now O[C@H]1c2c(ccc(Br)c2F)[C@]2(CN3C=C(C(F)(F)F)C=C(OC(F)F)C3=N2)CC1(F)F
Reply | 6

Ask | Ok, now FC1=CC(C(F)(F)F)=CN2CC3(CCCc4c3ccc(F)c4F)N=C12 (racemic)
Reply | 8

Ask | Ok, now N#CC1=CN2C[C@@]3(CSCc4c(F)cccc43)N=C2C(OC(F)F)=C1
Reply | 11

Ask | Ok, now Fc1cccc2c1OC[C@H](F)[C@@]21CN2C=C(C(F)(F)F)C=C(OC(F)F)C2=N1 (racemic)
Reply | 15
